I'd be grateful if you could share measured melting point for these entries.
Numbers only, in °C.

[[record]]
compound = "Cl.NC(N)=NC(=O)c1cn(-c2cnc3ccccc3c2)c2ccccc12 [Example 7]"
reported_measurement = 268

[[record]]
compound = "Cc1ccc2c(c1)c(C(=O)N=C(N)N)cn2-c1ccnc2ccccc12.Cl [Example 6]"
reported_measurement = 268

[[record]]
compound = "Cl.NC(N)=NC(=O)c1cn(-c2nccc3ccccc23)c2ccccc12 [Example 1]"
reported_measurement = 262

[[record]]
compound = "Cl.NC(N)=NC(=O)c1cn(-c2ccc3ncccc3c2)c2ccccc12 [Example 8]"
reported_measurement = 268


Report melting point for each item below.
1. Cl.NC(N)=NC(=O)c1cn(-c2ccnc3ccccc23)c2ccccc12 [Example 2]
2. N=C(N)NC(=O)c1cn(-c2cccc3cccnc23)c2ccccc12 [Example 9]
3. Cc1ccc2c(c1)c(C(=O)N=C(N)N)cn2-c1nccc2ccccc12.Cl [Example 4]
4. Cc1ccc2c(c1)c(C(=O)N=C(N)N)cn2-c1ccc2ccccc2n1.Cl [Example 5]

**A:**
[270, 172, 268, 268]

----------
I'd be grateful if you could share measured pIC50 for these entries.
target: NHE1 (Homo sapiens, UniProt P19634); assay: NHE inhibition FLIPR test (intracellular pH recovery, BCECF) in transfected LAP-1 cell lines; settings: transfected LAP-1 cell line expressing NHE1 subtype, BCECF fluorescence, pHi recovery after acidification
Sequence (P19634 whole entry): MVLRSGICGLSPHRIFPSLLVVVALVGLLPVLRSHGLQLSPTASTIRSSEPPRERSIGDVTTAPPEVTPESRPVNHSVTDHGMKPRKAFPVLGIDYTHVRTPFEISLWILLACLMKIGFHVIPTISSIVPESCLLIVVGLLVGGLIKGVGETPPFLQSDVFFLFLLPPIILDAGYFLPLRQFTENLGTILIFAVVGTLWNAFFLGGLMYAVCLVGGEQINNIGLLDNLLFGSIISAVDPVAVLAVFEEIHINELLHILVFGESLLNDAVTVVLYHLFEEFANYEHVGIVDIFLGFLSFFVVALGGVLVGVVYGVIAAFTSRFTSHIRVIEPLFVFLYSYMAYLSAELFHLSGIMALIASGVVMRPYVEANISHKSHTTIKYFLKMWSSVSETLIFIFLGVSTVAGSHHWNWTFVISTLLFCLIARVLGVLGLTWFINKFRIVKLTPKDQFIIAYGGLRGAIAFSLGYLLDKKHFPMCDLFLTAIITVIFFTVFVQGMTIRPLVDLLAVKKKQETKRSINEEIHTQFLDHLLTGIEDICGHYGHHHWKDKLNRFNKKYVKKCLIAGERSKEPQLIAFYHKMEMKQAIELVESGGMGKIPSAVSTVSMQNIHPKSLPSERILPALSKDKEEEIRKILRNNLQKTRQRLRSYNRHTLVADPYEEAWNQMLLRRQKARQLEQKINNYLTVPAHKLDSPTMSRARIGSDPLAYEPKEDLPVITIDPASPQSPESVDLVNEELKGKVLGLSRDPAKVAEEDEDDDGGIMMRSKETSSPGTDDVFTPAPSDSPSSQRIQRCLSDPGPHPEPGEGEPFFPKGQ
Structures can show the parent of a compound that is named as a salt.
Give bare numbers, as −log10 of the molar value.

Example results:
[[record]]
molecule = "Cc1ccc2c(c1)c(C(=O)N=C(N)N)cn2-c1nccc2ccccc12.Cl [Example 4, hydrochloride]"
reported_measurement = 6.70

[[record]]
molecule = "N=C(N)NC(=O)c1cn(-c2cccc3cccnc23)c2ccccc12"
reported_measurement = 6.56

[[record]]
molecule = "Cl.NC(N)=NC(=O)c1cn(-c2ccc3ncccc3c2)c2ccccc12 [Example 8, hydrochloride]"
reported_measurement = 6.84

[[record]]
molecule = "N=C(N)NC(=O)c1cn(-c2cc3ccccc3cn2)c2ccccc12 [Example 10, hydrochloride]"
reported_measurement = 5.73

[[record]]
molecule = "NC(N)=NC(=O)c1cn(-c2cnnc3ccccc23)c2ccccc12 [Example 15, trifluoroacetate]"
reported_measurement = 8.82


Report pIC50 for each item below.
1. Cl.NC(N)=NC(=O)c1cn(-c2nccc3ccccc23)c2ccccc12 [Example 1, hydrochloride]
2. COc1ccc2c(C(=O)NC(=N)N)cn(-c3ccnc4ccccc34)c2c1 [Example 11, dihydrochloride]
3. N=C(N)NC(=O)c1cn(-c2ccnc3ccccc23)c2ccc(F)cc12 [Example 13, hydrochloride]

**A:**
1. 7.85
2. 7.33
3. 7.41

----------
molecular target: NHE1 (Homo sapiens); experiment: NHE inhibition FLIPR test (intracellular pH recovery, BCECF) in transfected LAP-1 cell lines; settings: transfected LAP-1 cell line expressing NHE1 subtype, BCECF fluorescence, pHi recovery after acidification
pIC50: −log10 of the molar value. Where a name gives a salt, the structure may show the parent alone.
Tick satisfied if pIC50 is 6 or greater. Tick not satisfied if pIC50 is less than 6.

[[record]]
compound = "COc1ccc2c(c1)c(C(=O)N=C(N)N)c(C)n2-c1cnnc2ccccc12"
study_target = "NHE1 (Homo sapiens)"
label_value = "not satisfied"


Here is the next item to consider.
**Q:** Threshold query (pIC50 >= 6) on N=C(N)NC(=O)c1cn(-c2ccnc3ccccc23)c2cc(F)ccc12 [Example 12, hydrochloride]
**A:** satisfied

----------
target: UniProt:P19634; assay: NHE inhibition FLIPR test (intracellular pH recovery, BCECF) in transfected LAP-1 cell lines; conditions: transfected LAP-1 cell line expressing NHE1 subtype, BCECF fluorescence, pHi recovery after acidification
Structures can show the parent of a compound that is named as a salt.
Observation Type: IC50 (nM)
Give bare numbers, in nM.

Example results:
[[record]]
compound = "Cl.NC(N)=NC(=O)c1cn(-c2cnc3ccccc3c2)c2ccccc12 [Example 7, hydrochloride]"
study_target = "UniProt:P19634"
reported_measurement = 433

[[record]]
compound = "Cc1ccc2c(c1)c(C(=O)N=C(N)N)cn2-c1ccnc2ccccc12.Cl [Example 6, hydrochloride]"
study_target = "UniProt:P19634"
reported_measurement = 206

[[record]]
compound = "N=C(N)NC(=O)c1cn(-c2ccnc3ccccc23)c2ccc(Cl)cc12 [Example 14]"
study_target = "UniProt:P19634"
reported_measurement = 2460

[[record]]
compound = "Cc1ccc2c(c1)c(C(=O)N=C(N)N)cn2-c1ccc2ccccc2n1.Cl [Example 5, hydrochloride]"
study_target = "UniProt:P19634"
reported_measurement = 4980

[[record]]
compound = "Cl.NC(N)=NC(=O)c1cn(-c2ccnc3ccccc23)c2ccccc12 [Example 2, hydrochloride]"
study_target = "UniProt:P19634"
reported_measurement = 4


Now turn to the next compound.
**Q:** Query the reported IC50 for UniProt:P19634; item: NC(N)=NC(=O)c1cn(-c2ccc3ccccc3n2)c2ccccc12 [Example 3, hydrochloride]
**A:** 535

Entry source: patent US7531663B2
